target: human CA-XII (Homo sapiens, UniProt O43570); construct: purchased Creative BioMart CA12-261H; experiment: Surface Plasmon Resonance (SPR) binding kinetics to recombinant human CA-XII (Biacore 8K, single-cycle kinetics, 1:1 binding model); conditions: Chelated Metal: Lu-175, 25° C., pH 7.4, read-out: CAXII KD
Sequence (O43570 25-354): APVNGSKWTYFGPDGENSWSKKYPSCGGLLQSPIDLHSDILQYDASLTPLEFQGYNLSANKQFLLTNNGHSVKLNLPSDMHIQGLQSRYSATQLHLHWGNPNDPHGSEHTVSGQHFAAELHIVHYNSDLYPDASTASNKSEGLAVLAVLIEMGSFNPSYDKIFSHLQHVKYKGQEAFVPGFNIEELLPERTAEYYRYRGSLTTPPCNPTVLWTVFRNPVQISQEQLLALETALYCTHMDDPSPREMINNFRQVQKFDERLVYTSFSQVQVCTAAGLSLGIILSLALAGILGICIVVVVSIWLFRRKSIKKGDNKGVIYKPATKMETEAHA
pKd: −log10 of the molar value.
REPORTED_ENDPOINT: pKd

Below, 2 compounds whose answers are already recorded.
COMPOUND	MEASURED_ON	REPORTED_ENDPOINT	REPORTED_MEASUREMENT
CC(CCCC(=O)N1CCC(C(=O)O)(C(=O)NCC(=O)NC2(C(=O)NCCn3cc(C45CC(C(=O)Nc6nnc(S(N)(=O)=O)s6)(C4)C5)nn3)CCN(C(=O)CN3CCN(CC(=O)O)CCN(CC(=O)O)CCN(CC(=O)O)CC3)CC2)CC1)(c1ccc(O)cc1)c1ccc(O)cc1.[Lu+3] (single isomer, unassigned) [Compound 117.1]	human CA-XII (Homo sapiens, UniProt O43570)	pKd	< 8.00
CC(C)(C)c1ccc(CC(=O)N[C@@H](CC(=O)N[C@@H](CC(=O)N2CCN(C(=O)CN3CCN(CC(=O)O)CCN(CC(=O)O)CCN(CC(=O)O)CC3)C[C@H]2C(=O)NCCn2cc(C34CC(C(=O)Nc5nnc(S(N)(=O)=O)s5)(C3)C4)nn2)C(=O)O)C(=O)O)cc1.[Lu+3]	human CA-XII (Homo sapiens, UniProt O43570)	pKd	8.00 to 8.60

Could you now consider this next compound?
Inquiry: Find the recorded pKd belonging to CC(CCC(=O)N[C@@H](CC(=O)N[C@@H](CC(=O)N1CCN(C(=O)CN2CCN(CC(=O)O)CCN(CC(=O)O)CCN(CC(=O)O)CC2)C[C@H]1C(=O)NCCn1cc(C23CCC(C(=O)Nc4nnc(S(N)(=O)=O)s4)(C2)C3)nn1)C(=O)O)C(=O)O)(c1ccc(O)cc1)c1ccc(O)cc1.[Lu+3] and report it.
Reply text: > 9.00

---

pKd values by entry
Biological target: human CA-XII (Homo sapiens, UniProt O43570)
Construct: purchased Creative BioMart CA12-261H
Assay: Surface Plasmon Resonance (SPR) binding kinetics to recombinant human CA-XII (Biacore 8K, single-cycle kinetics, 1:1 binding model)
Details: Chelated Metal: Cu (cold), 25° C., pH 7.4, read-out: CAXII KD
Experimental: G1. Surface Plasmon Resonance Assay Conditions for hCA-IX and hCA-XII Surface Plasmon Resonance (SPR) experiments were conducted on a Biacore 8K instrument (Cytiva, Marlborough, MA) to determine the binding kinetics of the compound to recombinant human CA-IX (Acro, CA9-H82E3) and CA-XII (Creative BioMart, CA12-261H) proteins. […]
pKd: −log10 of the molar value.

Sample answers from the record:
MOLECULE	REPORTED_MEASUREMENT
CC(CCCC(=O)N1CCC(C(N)=O)(C(=O)NCC(=O)N2CCN(C(=O)CN3CCN(CC(=O)O)CCN(CC(=O)O)CC3)C[C@H]2C(=O)NCCn2cc(C34CC(C(=O)Nc5nnc(S(N)(=O)=O)s5)(C3)C4)nn2)CC1)(c1ccc(O)cc1)c1ccc(O)cc1.[Cu+2] [Compound 126]	< 8.00
CC(CCCC(=O)N1CCC(C(N)=O)(C(=O)NCC(=O)N2CCN(C(=O)CCC(C(=O)O)N3CCN(CC(=O)O)CCN(CC(=O)O)CC3)C[C@@H]2C(=O)NCCn2cc(C34CC(C(=O)Nc5nnc(S(N)(=O)=O)s5)(C3)C4)nn2)CC1)(c1ccc(O)cc1)c1ccc(O)cc1.[Cu+2] (stereo partly drawn) [Compound 127.3]	< 8.00

Okay, now this molecule:
Inquiry: For NS(=O)(=O)c1nnc(NC(=O)C23CC(c4cn(CCNC(=O)[C@@H]5CN(C(=O)CN6CCN(CC(=O)O)CCN(CC(=O)O)CC6)CCN5C(=O)C[C@H](NC(=O)C[C@H](NC(=O)CC5CC6(CCC6)C5)C(=O)O)C(=O)O)nn4)(C2)C3)s1.[Cu+2] [Compound 126.5] , what is its reported pKd?
Reply text: 8.60 to 9.00

---

target: human CA-IX (Homo sapiens); construct: purchased Acro CA9-H82E3; assay: Surface Plasmon Resonance (SPR) binding kinetics to recombinant human CA-IX (Biacore 8K, single-cycle kinetics, 1:1 binding model); conditions: KD ratio CAXII/CAIX; Chelated Metal: None
REPORTED_ENDPOINT: Ratio (CAXII/CAIX)

Use these answered entries as a reference point.
COMPOUND	REPORTED_ENDPOINT	REPORTED_MEASUREMENT
CC(CCCC(=O)N[C@@H](CC(=O)N[C@@H](CC(=O)N1CCN(C(=O)CN2CCN(CC(=O)O)CCN(CC(=O)O)CCN(CC(=O)O)CC2)C[C@H]1C(=O)NCCn1cc(C23CC(C(=O)Nc4nnc(S(N)(=O)=O)s4)(C2)C3)nn1)C(=O)O)C(=O)O)(c1ccc(O)cc1)c1ccc(O)cc1 [Compound 109.62]	Ratio (CAXII/CAIX)	*** (10 < *** ≤ 50)
CC(CCC(=O)N[C@@H](CC(=O)N[C@@H](CC(=O)N1CCN(C(=O)CN2CCN(CC(=O)O)CCN(CC(=O)O)CCN(CC(=O)O)CC2)C[C@H]1CCCCn1cc(C23CCC(C(=O)Nc4nnc(S(N)(=O)=O)s4)(CC2)C3)nn1)C(=O)O)C(=O)O)(c1ccc(O)cc1)c1ccc(O)cc1 [Compound 104.1]	Ratio (CAXII/CAIX)	* (1 < * < 5)
CC(CCC(=O)N[C@@H](CC(=O)N[C@@H](CC(=O)N1CCN(C(=O)CCC(CCC(=O)N2CCN(C(=O)C[C@H](NC(=O)C[C@H](NC(=O)CCC(C)(c3ccc(O)cc3)c3ccc(O)cc3)C(=O)O)C(=O)O)[C@H](C(=O)NCCn3cc(C45CC(C(=O)Nc6nnc(S(N)(=O)=O)s6)(C4)C5)nn3)C2)NC(=O)CN2CCN(CC(=O)O)CCN(CC(=O)O)CCN(CC(=O)O)CC2)C[C@H]1C(=O)NCCn1cc(C23CC(C(=O)Nc4nnc(S(N)(=O)=O)s4)(C2)C3)nn1)C(=O)O)C(=O)O)(c1ccc(O)cc1)c1ccc(O)cc1 (stereo partly shown) [Compound 131.4]	Ratio (CAXII/CAIX)	* (1 < * < 5)
CC(CCC(=O)N[C@@H](CC(=O)N[C@@H](CC(=O)N1CCN(C(=S)Nc2ccc3c(c2)OCCN(Cc2cccc(C(=O)O)n2)CCOCCOCCN(Cc2cccc(C(=O)O)n2)CCO3)C[C@H]1C(=O)NCCn1cc(C23CC(C(=O)Nc4nnc(S(N)(=O)=O)s4)(C2)C3)nn1)C(=O)O)C(=O)O)(c1ccc(O)cc1)c1ccc(O)cc1 [Compound 130]	Ratio (CAXII/CAIX)	*** (10 < *** ≤ 50)
CC(CCC(=O)N[C@@H](CC(=O)N[C@@H](CC(=O)N1CCN(C(=O)CN2CCN(CC(=O)O)CCN(CC(=O)O)CCN(CC(=O)O)CC2)C[C@@H]1CCCCn1cc(C23CCC(C(=O)Nc4nnc(S(N)(=O)=O)s4)(CC2)C3)nn1)C(=O)O)C(=O)O)(c1ccc(O)cc1)c1ccc(O)cc1 [Compound 104.2]	Ratio (CAXII/CAIX)	* (1 < * < 5)

Now for another entry.
Inquiry: Request the reported Ratio (CAXII/CAIX) associated with NS(=O)(=O)c1nnc(NC(=O)C23CC(c4cn(CCNC(=O)[C@@H]5CN(C(=O)CN6CCN(CC(=O)O)CCN(CC(=O)O)CCN(CC(=O)O)CC6)CCN5C(=O)C[C@H](NC(=O)C[C@H](NC(=O)Cc5ccc(C6CC6)cc5)C(=O)O)C(=O)O)nn4)(C2)C3)s1 [Compound 109.63]
Reply text: *** (10 < *** ≤ 50)

---

Target: human CA-XII (Homo sapiens, UniProt O43570)
Construct: purchased Creative BioMart CA12-261H
Assay: Surface Plasmon Resonance (SPR) binding kinetics to recombinant human CA-XII (Biacore 8K, single-cycle kinetics, 1:1 binding model)
Details: Chelated Metal: Lu-175, 25° C., pH 7.4, read-out: CAXII KD
Method: G1. Surface Plasmon Resonance Assay Conditions for hCA-IX and hCA-XII Surface Plasmon Resonance (SPR) experiments were conducted on a Biacore 8K instrument (Cytiva, Marlborough, MA) to determine the binding kinetics of the compound to recombinant human CA-IX (Acro, CA9-H82E3) and CA-XII (Creative BioMart, CA12-261H) proteins. […]
pKd: −log10 of the molar value.
REPORTED_ENDPOINT: pKd

NS(=O)(=O)c1nnc(NC(=O)C23CC(c4cn(C[C@H]5CN(C(=O)CN6CCN(CC(=O)O)CCN(CC(=O)O)CCN(CC(=O)O)CC6)CCN5C(=O)CNC(=O)C5(C(=O)O)CCN(C(=O)Cc6n[nH]c7ccccc67)CC5)nn4)(C2)C3)s1.[Lu+3] 8.60 to 9.00
CC(CCC(=O)N[C@@H](CC(=O)N[C@@H](CC(=O)N1CCN(C(=O)CN2CCN(CC(=O)O)CCN(CC(=O)O)CCN(CC(=O)O)CC2)C[C@H]1C(=O)NCCn1cc(C23CC(C(=O)Nc4nnc(S(N)(=O)=O)s4)(C2)C3)nn1)C(=O)O)C(N)=O)(c1ccc(O)cc1)c1ccc(O)cc1.[Lu+3] < 8.00
CC(CCC(=O)N[C@@H](CC(=O)N[C@@H](CC(=O)NC1(CCCCn2cc(CCCCC(=O)Nc3nnc(S(N)(=O)=O)s3)nn2)CCN(C(=O)OCCOCCNC(=O)CN2CCN(CC(=O)O)CCN(CC(=O)O)CCN(CC(=O)O)CC2)CC1)C(=O)O)C(=O)O)(c1ccc(O)cc1)c1ccc(O)cc1.[Lu+3] 8.00 to 8.60
NS(=O)(=O)c1nnc(NC(=O)C23CC(c4cn(CCNC(=O)[C@@H]5CN(C(=O)CN6CCN(CC(=O)O)CCN(CC(=O)O)CCN(CC(=O)O)CC6)CCN5C(=O)C[C@H](NC(=O)C[C@H](NC(=O)c5n[nH]nc5C(F)(F)F)C(=O)O)C(=O)O)nn4)(C2)C3)s1.[Lu+3] 8.60 to 9.00
Cc1cc(-c2cn(CCNC(=O)[C@@H]3CN(C(=O)CN4CCN(CC(=O)O)CCN(CC(=O)O)CCN(CC(=O)O)CC4)CCN3C(=O)C[C@H](NC(=O)C[C@H](NC(=O)CCC(C)(c3ccc(O)cc3)c3ccc(O)cc3)C(=O)O)C(=O)O)nn2)ccc1C(=O)Nc1nnc(S(N)(=O)=O)s1.[Lu+3] > 9.00
C[C@H](Nc1c(F)c(S(N)(=O)=O)c(F)c(F)c1S(=O)(=O)CCOCc1cn(CCNC(=O)[C@H]2CN(C(=O)CN3CCN(CC(=O)O)CCN(CC(=O)O)CCN(CC(=O)O)CC3)CCN2C(=O)C[C@H](NC(=O)[C@@H]2COCCN2C(=O)CCCc2ccc(O)cc2)C(=O)O)nn1)C1CCCC1.[Lu+3] 8.00 to 8.60

// moving on: another record for pKd
Inquiry: Using the record for NS(=O)(=O)c1nnc(NC(=O)C23CC(c4cn(CCNC(=O)[C@@H]5CN(C(=O)CN6CCN(CC(=O)O)CCN(CC(=O)O)CCN(CC(=O)O)CC6)CCN5C(=O)C[C@H](NC(=O)C[C@H](NC(=O)c5ccc(C6CC6)nn5)C(=O)O)C(=O)O)nn4)(C2)C3)s1.[Lu+3] , report its pKd.
Reply text: 8.00 to 8.60

Reference for the values: patent US20260325685A1
